Biological target: T1, B7 antigen (B7-1) stably expressed on CHO cells (UniProt P33681 35-288, limits assumed)
T1 construct: whole, on cells; also called B7+CHO cells; B7 positive CHO cells
T1 sequence (looked up): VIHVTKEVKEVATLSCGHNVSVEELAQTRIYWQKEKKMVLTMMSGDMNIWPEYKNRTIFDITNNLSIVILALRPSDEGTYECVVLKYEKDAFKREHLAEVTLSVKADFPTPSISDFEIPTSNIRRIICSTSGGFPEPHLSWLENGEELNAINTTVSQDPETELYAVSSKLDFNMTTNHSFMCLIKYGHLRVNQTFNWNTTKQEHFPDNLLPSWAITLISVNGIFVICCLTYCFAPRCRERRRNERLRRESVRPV
Experiment: cell enzyme immunoassay on fixed B7-1+ CHO cells

BINDER	binding result
CTLA4/CD28Ig hybrid fusion protein HS9 (Fc fusion, range 1-24;range 33-115; not shown: human IgG1 hinge (Cys to Ser), CH2, CH3; junction printed as DQE) NKILVKQSPMLVAYDNAVNLSCKYASPGKATEFRASLHKGLDSAVEVCVVYGNYSQQLQVYSKTGFNCDGKLGNESVTFYLQNLYVNQTDIYFCKIEVMYPPPYLDNEKSNGTIIYVIDPEPCPD	binds
CTLA4/CD28Ig hybrid fusion protein HS12 (Fc fusion, not shown: human IgG1 hinge (Cys to Ser), CH2, CH3; junction printed as DQE) NKILVKQSPMLVAYDNAVNLSCKYSYNLFSREFRASLHKGLDSAVEVCVATYMMGNELQVYSKTGFNCDGKLGNESVTFYLQNLYVNQTDIYFCKIELMYPPPYYLGIGNGTQIHVKGKHLCPS	binds

Each recorded value in this set is attributed to patent US20090317397A1.
